Assay system: TNKS2 (Homo sapiens)
Construct: GST-tagged Tnks-2 (873-1166 aa, prepared in-house); made in house
Sequence (Q9H2K2 873-1166): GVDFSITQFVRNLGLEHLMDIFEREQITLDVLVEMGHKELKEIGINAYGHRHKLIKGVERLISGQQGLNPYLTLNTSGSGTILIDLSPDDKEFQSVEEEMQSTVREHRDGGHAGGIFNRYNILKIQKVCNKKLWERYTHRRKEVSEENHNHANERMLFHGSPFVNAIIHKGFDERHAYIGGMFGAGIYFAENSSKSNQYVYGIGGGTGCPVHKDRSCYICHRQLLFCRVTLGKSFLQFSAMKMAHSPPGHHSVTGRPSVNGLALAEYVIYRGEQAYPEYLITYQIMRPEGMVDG
Assay text: TNKS2 activity ELISA (autoparsylation assay)
Type: biochemical
Assay setup: GST-tagged Tnks-2 (873-1166 aa); read-out: IC50 [M] TNKS2 ELISA
Method: Description of the TNKS1 and TNKS2 ELISA Assay Biochemical Activity Testing of TNKS 1 and 2: Activity ELISA (Autoparsylation Assay) For analysis of autoparsylation activity of TNKS 1 and 2 an activity ELISA iss performed: In the first step GST tagged TNKS is captured on a Glutathione coated plate. Then the activity assay with biotinylated NAD is performed in the absence/presence of the compounds. […] The amount of biotinylated resp. autoparsylated TNKS is detected with a luminescence substrate for HRP. […]
Observed property: IC50 (M)

{"columns": ["Compound smiles", "Number"],
 "data": [
  ["O=C(CCCc1nn2cc(F)cc2c(=O)[nH]1)N1CCC(c2nnc(-c3ccccc3)o2)CC1", "1.4e-08"],
  ["COc1ccc(C(=O)C2CCN(C(=O)CCCc3nc(C)c(C)c(=O)[nH]3)CC2)cc1", "8.2e-10"],
  ["Cc1cc2c(=O)[nH]c(CCCC(=O)N3CCC(C(=O)c4cnn(C)c4)CC3)cn2n1", "7.9e-10"],
  ["CCn1cc(C(=O)C2CCN(C(=O)CCCc3nn4c(C)ccc4c(=O)[nH]3)CC2)cn1", "2.9e-10"],
  ["Cn1ncc2c(=O)[nH]c(CCCC(=O)N3CCC(C(=O)c4ccc(Cl)cc4)CC3)nc21", "2.4e-10"],
  ["Cc1cc2c(=O)[nH]c(CCCC(=O)N3CCC(C(=O)c4ccc(F)cc4)CC3)nn2c1", "2.8e-09"],
  ["COc1ccc(C(=O)C2CCN(C(=O)CCCc3nn4cc(C)cc4c(=O)[nH]3)CC2)cc1F", "9.2e-10"],
  ["CC(F)(F)c1ccc(C(=O)C2CCN(C(=O)CCCc3nc4c(c(=O)[nH]3)COCC4)CC2)cc1", "3.3e-10"]
]}

====

Entries and their IC50 values follow.
Assay system: TNKS2 (Homo sapiens)
Construct: GST-tagged Tnks-2 (873-1166 aa, prepared in-house); made in house
Assay text: TNKS2 activity ELISA (autoparsylation assay)
Format: biochemical
Assay setup: GST-tagged Tnks-2 (873-1166 aa); read-out: IC50 [M] TNKS2 ELISA
Counter-ions that a name gives are not always drawn.
Observed property: IC50

{"columns": ["Molecule", "Assay system", "Observed property", "Result"],
 "data": [
  ["Cn1ccc2c(=O)[nH]c(CCCC(=O)N3CCC(C(=O)c4ccc(F)cc4)CC3)nc21 [Compound C186]", "TNKS2 (Homo sapiens)", "IC50", "1.9e-09 M"],
  ["Cc1csc2c(=O)[nH]c(CCCC(=O)N3CCC(C(=O)c4ccc(C(C)(C)O)cc4)CC3)nc12 [Compound C133]", "TNKS2 (Homo sapiens)", "IC50", "7.5e-10 M"],
  ["COc1ccc(C(=O)C2CCN(C(=O)CCCc3nn4cc(C)cc4c(=O)[nH]3)CC2)cn1 [Compound C159]", "TNKS2 (Homo sapiens)", "IC50", "2.7e-09 M"],
  ["COc1ccc(C(=O)C2CCN(C(=O)CCCc3cn4c(C)ccc4c(=O)[nH]3)CC2)cc1C [Compound C3]", "TNKS2 (Homo sapiens)", "IC50", "1.7e-10 M"],
  ["CCn1cc(C(=O)C2CCN(C(=O)CCCc3nc4c(C)csc4c(=O)[nH]3)CC2)cn1 [Compound C224, trifluoroacetate]", "TNKS2 (Homo sapiens)", "IC50", "7.1e-10 M"],
  ["Cn1ncc2c(=O)[nH]c(CCCC(=O)N3CCC(c4cnc(N)c(C#N)c4)CC3)nc21 [Compound C44]", "TNKS2 (Homo sapiens)", "IC50", "9.7e-10 M"],
  ["COc1ccc(C(=O)C2CCN(C(=O)CCCc3nc4c(C)csc4c(=O)[nH]3)CC2)cc1 [Compound C35]", "TNKS2 (Homo sapiens)", "IC50", "1.1e-10 M"]
]}

====

Assay system: TNKS2 (Homo sapiens)
Construct: GST-tagged Tnks-2 (873-1166 aa, prepared in-house); made in house
Assay text: TNKS2 activity ELISA (autoparsylation assay)
Format: biochemical
Assay setup: GST-tagged Tnks-2 (873-1166 aa); read-out: IC50 [M] TNKS2 ELISA
Entries and their IC50 values follow.

{"columns": ["Compound smiles", "Scale unit", "Inequality symbol", "IC50"],
 "data": [
  ["COc1ccc(C(=O)C2CCN(C(=O)CCCc3nn4c(C)ccc4c(=O)[nH]3)CC2)cc1", "M", "<", "1e-10"],
  ["Cn1cc(C(=O)C2CCN(C(=O)CCCc3nn4cc(F)cc4c(=O)[nH]3)CC2)cn1", "M", "=", "1.1e-09"],
  ["COc1ccc(C(=O)C2CCN(C(=O)CCCc3cn4cccc4c(=O)[nH]3)CC2)cn1", "M", "=", "1.7e-10"],
  ["O=C(c1ccc(F)cc1)C1CCN(C(=O)CCCc2nn3cccc3c(=O)[nH]2)CC1", "M", "=", "1.4e-08"]
]}

====

Entries and their EC50 values follow.
Test system: Tankyrases
Assay setup: read-out: EC50 [M] TNKS cellular assay; DLD1 cells, 24 hours, Axin2 increase
Counter-ions that a name gives are not always drawn.

{"columns": ["Molecule", "Scale unit", "EC50"],
 "data": [
  ["Cn1cc(C(=O)C2CCN(C(=O)CCCc3nc4c(ccn4C)c(=O)[nH]3)CC2)cn1 [Compound C190]", "M", "1.9e-07"],
  ["COc1ccc(C(=O)C2CCN(C(=O)CCCc3cn4cc(C)cc4c(=O)[nH]3)CC2)cc1 [Compound C8]", "M", "2.8e-09"],
  ["Cc1cc2c(=O)[nH]c(CCCC(=O)N3CCC(C(=O)c4ccc(C(C)(C)O)cc4)CC3)nn2c1 [Compound C166]", "M", "1.8e-07"],
  ["Cc1scc2c(=O)[nH]c(CCCC(=O)N3CCC(C(=O)c4cnn(C)c4)CC3)nc12 [Compound C123]", "M", "3.4e-09"],
  ["CC(C)c1cc(=O)[nH]c(CCCC(=O)N2CCC(C(=O)c3ccc(F)cc3)CC2)n1 [Compound C255, trifluoroacetate]", "M", "2.7e-06"],
  ["Cc1ccc(C(=O)C2CCN(C(=O)CCCc3nn4cccc4c(=O)[nH]3)CC2)cc1 [Compound C235]", "M", "3.9e-09"],
  ["Cc1cc2c(=O)[nH]c(CCCC(=O)N3CCC(C(=O)c4cnn(C)c4)CC3)nn2c1 [Compound C168]", "M", "3.4e-08"],
  ["Cc1csc2c(=O)[nH]c(CCCC(=O)N3CCC(c4cnc(N)c(C#N)c4)CC3)nc12 [Compound C56]", "M", "3.6e-08"]
]}

====

Assay system: TNKS2 (Homo sapiens)
Construct: GST-tagged Tnks-2 (873-1166 aa, prepared in-house); made in house
Assay text: TNKS2 activity ELISA (autoparsylation assay)
Format: biochemical
Assay setup: GST-tagged Tnks-2 (873-1166 aa); read-out: IC50 [M] TNKS2 ELISA
Where a name gives a salt, the structure may show the parent alone.
Observed property: IC50 (M)

{"columns": ["Compound", "Assay system", "Scale unit", "Number"],
 "data": [
  ["COc1ccc(C(=O)C2CCN(C(=O)CCCc3nc(C(C)C)cc(=O)[nH]3)CC2)cc1 [Compound C254, trifluoroacetate]", "TNKS2 (Homo sapiens)", "M", "1.5e-08"],
  ["CCc1cc(=O)[nH]c(CCCC(=O)N2CCC(C(=O)c3ccc(OC)nc3)CC2)n1", "TNKS2 (Homo sapiens)", "M", "1.9e-08"],
  ["N#Cc1ccc(OC2CCN(C(=O)CCCc3nc4c(c(=O)[nH]3)COCC4)CC2)cc1", "TNKS2 (Homo sapiens)", "M", "2.4e-07"],
  ["Cc1csc2c(=O)[nH]c(CCCC(=O)N3CCC(c4cnc(N)c(C#N)c4)CC3)nc12", "TNKS2 (Homo sapiens)", "M", "5.3e-10"],
  ["COc1ccc(C(=O)C2CCN(C(=O)CCCc3nc4c(c(=O)[nH]3)COCC4)CC2)cc1F", "TNKS2 (Homo sapiens)", "M", "2.1e-09"],
  ["COc1ccc(C(=O)C2CCN(C(=O)CCCc3nn4cc(F)cc4c(=O)[nH]3)CC2)cc1", "TNKS2 (Homo sapiens)", "M", "3.7e-10"],
  ["Cn1ccc2c(=O)[nH]c(CCCC(=O)N3CCC(c4cnc(N)c(-c5ncccn5)c4)CC3)nc21", "TNKS2 (Homo sapiens)", "M", "2.9e-10"]
]}
